target: recombinant human ALR2 (Homo sapiens); experiment: ALR2 inhibition assay; format: biochemical
# IC50 listing for each entry below

Completed entries (count: 10):
COc1cc(C(CC(=O)N2CCC(c3c[nH]c4ccccc34)CC2=O)c2c[nH]c3ccccc23)cc(OC)c1OC (stereo not shown); 80 µM
O=C1C=CCCN1C(=O)/C=C/c1ccc(Cl)cc1; > 500 µM
COc1cc(/C=C/C(=O)N2CCC=C(C(O)c3ccc(C)cc3)C2=O)cc(OC)c1OC (stereo not shown) [Compound 32i]; > 500 µM
O=C1C=CCCN1C(=O)C=Cc1ccccc1 [Compound 12, 1-Cinnamoyl-5,6-dihydropyridin-2(1H)-one]; > 500 µM
COc1cc(C(CC(=O)N2CCC=CC2=O)c2c[nH]c3ccccc23)cc(OC)c1OC (stereo not shown); > 500 µM
COc1cc(/C=C/C(=O)N2CCC=C(C(O)c3ccc4ccccc4c3)C2=O)cc(OC)c1OC (stereo not shown) [Compound 32h]; > 500 µM
COc1cc(C(CC(=O)N2CCC=CC2=O)c2cn(C)c3ccccc23)cc(OC)c1OC (stereo not shown); 100 µM
O=C1C=CCCN1C(=O)/C=C/c1cccc(Oc2ccccc2)c1; > 500 µM
O=C1C=CCCN1C(=O)/C=C/c1cccs1; > 500 µM
COc1cc(/C=C/C(=O)N2CCC=C(C(O)c3ccccc3)C2=O)cc(OC)c1OC (stereo not shown) [Compound 32j]; > 500 µM

Moving on to the next compound.
Quick note, IC50 for COc1cc(C(CC(=O)O)c2c(C)[nH]c3ccccc23)cc(OC)c1OC (stereo not shown) landed at 72 µM

###

target: recombinant human ALR2 (Homo sapiens); experiment: ALR2 inhibition assay; type: biochemical
pIC50: −log10 of the molar value.
# pIC50 annotations

# count of solved cases: 6
O=C1C=CCCN1C(=O)/C=C/c1cccc(C(F)(F)F)c1 [Compound 13]; 3.40
O=C1C=CCCN1C(=O)/C=C/C=C/c1ccc2c(c1)OCO2 [Compound 30]; 3.30
COc1cc(/C=C/C(=O)N2CCC=C(C(O)c3ccc(F)cc3)C2=O)cc(OC)c1OC (centres unmarked) [Compound 32b]; < 3.30
COc1cc(/C=C/C(=O)N2CCCC2=O)cc(OC)c1OC [Compound 34]; < 3.30
COC(=O)/C=C/c1cc(OC)c(OC)c(OC)c1 [Compound 5]; < 3.30
COc1cc(C(CC(=O)N2CCC(c3c[nH]c4ccc(I)cc34)CC2=O)c2c[nH]c3ccc(I)cc23)cc(OC)c1OC (centres unmarked) [Compound 3f]; < 3.30

Reported pIC50 for O=C1C=CCCN1C(=O)/C=C/c1ccc2ccccc2c1 [Compound 18] was 3.46
